Test system: WILD RADISH
Test: Test E
Format: in vivo, Raphanus raphanistrum
Conditions: POSTEMERGENCE 0250 GM/HA
measure: plant response (%)

> print(dat)
                                   compound  unitstring  numericreadout
1  C=C(c1ccccc1)C(O)(Cn1cncn1)c1ccc(Cl)cc1 (stereo not shown)           %              30
2  C=C(c1ccccc1)C(O)(Cn1cncn1)c1ccc(F)cc1F (stereo not shown)           %              50
3  C=C(c1ccc(F)cc1)C(O)(Cn1cncn1)c1ccccc1F (stereo not shown)           %              50
4  C=C(c1ccc(F)cc1)C(O)(Cn1cncn1)c1ccc(F)cc1F (stereo not shown)           %              80
